Test system: HCT-15
Where a SMILES comes first, the peptide text is derived from it. [ ]: non-standard residue; d: D form. The star is where a group is joined. NMeF = CN[CH](Cc1ccccc1)C(=O)O; NMeV = CN[CH](C(=O)O)C(C)C; Boc = CC(C)(C)OC(=O)*; OBn = c1ccc(CO*)cc1
Quick list: GI50 per entry.
TEST READOUT: GI50

compound="O=C(O)c1ccc(C2C3C=CC(C3)C2[N+](=O)[O-])cc1 (stereo not given)" value_reported="> 100 µM"
compound=Cc1ccc(Nc2cc(=O)[nH]c(=S)[nH]2)cc1 value_reported="> 100 µM"
compound="CC(C)C(NC(=O)OC(C)(C)C)C(=O)N(C)C(Cc1ccccc1)C(=O)N(C)C(C(=O)N(C)C(C(=O)OCc1ccccc1)C(C)C)C(C)C (stereo not given) (Boc-V[NMeF][NMeV][NMeV]-OBn; configuration not given here)" value_reported="> 100 µM"
compound=c1ccc(CNn2nnc3ccccc32)cc1 value_reported="> 100 µM"
compound="COc1ccccc1N1C(=O)/C(=C\\c2ccccc2)SC1c1cc(OC)c(OC)c(OC)c1 (stereo not given)" value_reported="32.3 µM"
compound=COC(=O)[C@@H]1OC(C)(c2ccccc2)O[C@H]1C(=O)OC value_reported="> 100 µM"
compound=O=Cc1ccccc1COC(=O)c1cc(C(=O)OCc2ccccc2C=O)c(C(=O)OCc2ccccc2C=O)cc1C(=O)OCc1ccccc1C=O value_reported="> 100 µM"
compound=CC(C)(C)[C@H]1CCC2(OCCO2)[C@](O)(CCCO)C1 value_reported="> 100 µM"
compound=Oc1[nH]c(Nc2ccc(Cl)c(C(F)(F)F)c2)nc2ncnc1-2 value_reported="> 100 µM"
compound="CC1CC2C3CC(F)C4=CC(=O)C=CC4(C)C3(F)C(O)CC2(C)C1(O)C(=O)COC(=O)C(C)(C)C (stereo not given)" value_reported="> 100 µM"
compound="CCCCCCCCCCCCCC(=O)N(CCCCCCCCC)CC(O)C(O)C(OC1OC(CO)C(O)C(O)C1O)C(O)CO (stereo not given)" value_reported="23.6 µM"
compound=O=C(O)Cn1ccc(=O)c2cc([N+](=O)[O-])ccc21 value_reported="> 100 µM"
compound=COc1ccc(OC)c(CNc2ccc(O)c(C(=O)NCCc3ccc(F)cc3)c2)c1 value_reported="12.6 µM"
compound=O=C1CSC2(CCN(CCCN3c4ccccc4Sc4ccc(Cl)cc43)CC2)N1 value_reported="6.78 µM"
compound=Cc1c(C)c([N+](=O)[O-])c2c(c1N)C(=O)c1ccccc1C2=O value_reported="> 100 µM"
compound=Cc1cc(NS(=O)(=O)c2ccc(Nc3c4ccccc4nc4c(C(=O)N5CCN(CCO)CC5)ccc(Cl)c34)cc2)no1 value_reported="> 100 µM"
compound="CCCCCCCCOCC(COC(=O)CCCCCCC)OC(=O)CCCCCCC (stereo not given)" value_reported="> 100 µM"
compound="CCC(C)C1(O)OC2CC3(C)OC(=CC3=O)/C(C)=C\\C3OC(=O)C1(C)C32 (stereo not given)" value_reported="3.3 µM"
compound="NC(=O)C12CCC1C1CCCCC12N1CCOCC1 (stereo not given)" value_reported="> 100 µM"
compound=Cc1ccc2c(n1)C(=O)c1ccccc1C2=O value_reported="25.8 µM"
compound="O=[N+]([O-])c1cccc(C2=NOC(C3CCCCC3)C2)c1 (stereo not given)" value_reported="> 100 µM"
compound=CSc1sc(=S)sc1SC value_reported="> 100 µM"
compound=C/C(=C\c1ccccc1)C(=O)NCc1ccc(C(=O)NCCC(C)C)cc1 value_reported="> 100 µM"
compound="COc1cc2c(cc1OC)-c1cc3ccc(OC)c(OC)c3c[n+]1CC2 [PALMATINE CHLORIDE]" value_reported="> 100 µM"
compound="CCOC(=O)C1C(C(C)C)C2(C#N)C(=N)OC1(C)C2(C#N)C#N (stereo not given)" value_reported="49.3 µM"
compound=CC1(C)S[C@H](CN)N[C@H]1C(=O)OC(c1ccccc1)c1ccccc1 value_reported="36.1 µM"
compound=N/C(=N\c1ccc(Cl)cc1)c1ccccc1N value_reported="> 100 µM"
compound=O=P(CN1CCOCC1)(c1ccccc1)c1ccccc1 value_reported="> 100 µM"
compound="C=C1C(=O)OC2CC(C)C3C4OC4C(O)C3(C)C(O)C12 (stereo not given)" value_reported="22.8 µM"
compound="CN(C)C(=O)C(F)(F)C(c1ccc(C(F)(F)F)cc1)C1C(=O)N(C)C(=O)N(C)C1=O (stereo not given)" value_reported="> 100 µM"

* * *

Test system: SN12C
Assay: NCI tumour cell line growth inhibition, 48 h
Active and inactive are the calls of the source. Rule as the data show it: active = GI50 up to about 1.1 µM and inactive = higher.
Outcomes: active, inactive

compound=O=C(O)Cn1ccc(=O)c2cc([N+](=O)[O-])ccc21 assigned_category=inactive
compound=CN(C)c1n/c(=N/c2ccc3c(c2)OCO3)ss1 assigned_category=inactive
compound="C=C1CCC2C(C)(CO)C(O)CCC2(C)C1C/C=C1/CCOC1=O (stereo unspecified)" assigned_category=inactive
compound=COc1ccc(CN(CCc2c[nH]c3ccccc23)Cc2ccc(OC)cc2)cc1 assigned_category=active
compound=COc1ccc(-c2cnoc2-c2ccc(OC)c(OC)c2)cc1OC assigned_category=inactive
compound=O=C1/C(=C/c2ccccc2)CN(C(=O)C(F)(F)F)C/C1=C\c1ccccc1 assigned_category=inactive

* * *

In this section we review reported GI50 values for a set of molecules.
Test system: RPMI-8226
Assay: NCI tumour cell line growth inhibition, 48 h
Activity calls are given as the source filed them. Rule as the data show it: active = GI50 up to about 1.1 µM and inactive = higher.
TEST READOUT: GI50

molecule=CC(=O)OC[C@@H](OC(C)=O)[C@@H](OC(C)=O)[C@H]1OC[C@@H]2C[C@H]([C@H]1OC(C)=O)N(Cc1ccccc1)O2 test_readout=GI50 value_reported="> 100 µM (inactive)"
molecule=O=Cc1ccccc1COC(=O)c1cc(C(=O)OCc2ccccc2C=O)c(C(=O)OCc2ccccc2C=O)cc1C(=O)OCc1ccccc1C=O test_readout=GI50 value_reported="43.7 µM (inactive)"
molecule=Nn1c(Nc2ccc(S(N)(=O)=O)cc2)nnc(/C=C/c2c(O)ccc3ccccc23)c1=O test_readout=GI50 value_reported="10.7 µM (inactive)"
molecule="O=C1/C(=C/C=C/c2ccccc2)N=C(c2ccccc2)N1C1Nc2cc3c(cc2S1)NC(N1C(=O)/C(=C/C=C/c2ccccc2)N=C1c1ccccc1)S3 (centres undefined)" test_readout=GI50 value_reported="13.2 µM (inactive)"

* * *

Tested on: UACC-62
Test: NCI tumour cell line growth inhibition, 48 h
Active and inactive are the calls of the source. Cut-off read from the data, not from the text of the source: active = GI50 up to about 1.1 µM and inactive = higher.
TEST READOUT: GI50

compound=N#CCCN(CCC#N)c1ccc(/C=C2\N=C(c3ccccc3)N(c3ccccn3)C2=O)cc1 tested_system=UACC-62 value_reported="> 100 µM (inactive)"
compound="COc1ccccc1N1C(=O)/C(=C\\c2ccccc2)SC1c1cc(OC)c(OC)c(OC)c1 (stereo not given)" tested_system=UACC-62 value_reported="30.2 µM (inactive)"
compound=O=Cc1ccccc1COC(=O)c1cc(C(=O)OCc2ccccc2C=O)c(C(=O)OCc2ccccc2C=O)cc1C(=O)OCc1ccccc1C=O tested_system=UACC-62 value_reported="> 100 µM (inactive)"
compound="COc1ccc(CC(N)c2ccc(OC)cc2)cc1 (stereo not given)" tested_system=UACC-62 value_reported="71.3 µM (inactive)"
compound=Oc1ncnc2c1sc(=S)n2-c1ccccc1 tested_system=UACC-62 value_reported="> 100 µM (inactive)"
compound=CCN(CC)C(=O)CNC(=O)OC(C)(C)C tested_system=UACC-62 value_reported="> 100 µM (inactive)"
compound=Clc1cc(Cl)c2n[se]nc2c1 tested_system=UACC-62 value_reported="> 100 µM (inactive)"
compound=CC(=O)NC1=C(NCCN(C)C)C(=O)c2ccccc2C1=O tested_system=UACC-62 value_reported="10.5 µM (inactive)"
compound="O=C(CC(NC(=O)C(F)(F)F)C(=O)O)OCc1ccccc1 (stereo not given)" tested_system=UACC-62 value_reported="> 100 µM (inactive)"
compound=O=C1/C(=C/c2ccccc2)CN(C(=O)C(F)(F)F)C/C1=C\c1ccccc1 tested_system=UACC-62 value_reported="1.84 µM (inactive)"
compound=Clc1ccc(Cn2cc(/C=N/n3cnnc3)c3ccccc32)cc1 tested_system=UACC-62 value_reported="29 µM (inactive)"
compound=O=C1N(CN2CCOCC2)CN(CN2CCOCC2)C(=O)N1Cc1ccc(CN2C(=O)N(CN3CCOCC3)CN(CN3CCOCC3)C2=O)cc1 tested_system=UACC-62 value_reported="31.2 µM (inactive)"
compound="COc1ccc(NC(=O)CC2SC(Nc3ccc(Cl)cc3C)=NC2=O)c([N+](=O)[O-])c1 (stereo not given)" tested_system=UACC-62 value_reported="> 100 µM (inactive)"
compound=COc1cc(-c2c[nH]c3ccccc23)nc(-c2c[nH]c3ccccc23)n1 tested_system=UACC-62 value_reported="6.18 µM (inactive)"
compound=O=S(=O)(O)c1ccc(/N=N/c2ccc(/N=N/c3c(O)ccc4ccccc34)c(S(=O)(=O)O)c2)cc1 tested_system=UACC-62 value_reported="> 100 µM (inactive)"
compound=O=C1c2cc([N+](=O)[O-])sc2C(=O)c2ccsc21 tested_system=UACC-62 value_reported="0.204 µM (active)"
compound="O=[N+]([O-])c1cccc(C2=NOC(C3CCCCC3)C2)c1 (stereo not given)" tested_system=UACC-62 value_reported="> 100 µM (inactive)"
compound="CCCCN1C(=O)CC2[C@@H]3CCc4cc(OC)ccc4C3CC[C@]2(C)C1=O (stereo not given in full)" tested_system=UACC-62 value_reported="> 10 µM (inactive)"
compound="N#CCCC(CC#N)N1CCN(C(CC#N)CCC#N)CC1 (stereo not given)" tested_system=UACC-62 value_reported="> 100 µM (inactive)"
compound=CN(C)CCNC(=O)c1cccc(NC(=O)c2ccccc2)c1[N+](=O)[O-] tested_system=UACC-62 value_reported="> 100 µM (inactive)"
